What IC50 was measured for each of the following?
tested on: PANC-1; test: Cytotoxicity against human PANC1 cells after 48 hrs by resazurin assay; type: functional, cell-based; details: PANC-1, 48 h
Numbers only, in µM.

As a guide, the following entries are already answered.
{"chem-smiles": "CCNc1[nH]nc(N)c1C(=O)Nc1ccc(OCC)cc1", "IC50 [µM]": 14.8}
{"chem-smiles": "CCOc1ccc(NC(=O)/C(C#N)=C(\\NC23CC4CC(CC(C4)C2)C3)SC)cc1", "IC50 [µM]": 23.7}
{"chem-smiles": "CCOc1ccc(-n2nnc3n[nH]c(NC)c3c2=O)cc1", "IC50 [µM]": 9.92}

Could you report IC50 for every entry in the following list?
1. CCOc1ccc(NC(=O)c2c(N)n[nH]c2NC)cc1
2. CCOc1ccc(-n2nnc3n[nH]c(Nc4ccccc4)c3c2=O)cc1

[31, 13.1]

Data origin: ChEMBL document CHEMBL4251555
